Experiment: First-in-human Part 2 multiple ascending dose q.d. blood and urine PK
Format: in vivo
Settings: human, whole blood, oral, 600 mg, 600 mg qd, Day 12, blood; Median (Min-Max); read-out: AUC0-24
property-measured: AUC(0-t) (ng·h/mL)
Number in ng·h/mL, nothing else.

Give the measured AUC(0-t) for C=CC(=O)N(C)CCOc1c(N)ncnc1-c1cc(F)cc(NC(=O)c2ccc(C3CC3)cc2F)c1C 1060

###

Assay: First-in-human Part 2 multiple ascending dose q.d. blood and urine PK
Format: in vivo
Settings: human, whole blood, oral, 25 mg, 25 mg qd, Day 12, blood; Mean ± SD; read-out: AUC0-24
property-measured: AUC(0-t) (ng·h/mL)
Number in ng·h/mL, nothing else.

Give the measured AUC(0-t) for C=CC(=O)N(C)CCOc1c(N)ncnc1-c1cc(F)cc(NC(=O)c2ccc(C3CC3)cc2F)c1C 117

###

Assay: First-in-human Part 2 multiple ascending dose q.d. blood and urine PK
Type: in vivo
Details: human, blood and urine, oral, 10 mg, 10 mg qd, Day 12; Median (Min-Max); read-out: Renal clearance
property-measured: CL renal (mL/min)
Number in mL/min, nothing else.

Give the measured CL renal for C=CC(=O)N(C)CCOc1c(N)ncnc1-c1cc(F)cc(NC(=O)c2ccc(C3CC3)cc2F)c1C 41.6

###

Test: First-in-human Part 3 food effect PK, single 60 mg dose
Format: in vivo
Conditions: human, blood, oral, 60 mg, single dose 60 mg, FAST; Geomean; read-out: AUC0-24
property-measured: AUC(0-t) (ng·h/mL)
Number in ng·h/mL, nothing else.

Give the measured AUC(0-t) for C=CC(=O)N(C)CCOc1c(N)ncnc1-c1cc(F)cc(NC(=O)c2ccc(C3CC3)cc2F)c1C [Compound of Formula (I)] 182

###

Experiment: First-in-human Part 2 multiple ascending dose q.d. blood and urine PK
Format: in vivo
Details: human, blood, oral, 10 mg, 10 mg qd, Day 1, blood; Median (Min-Max); read-out: AUClast
property-measured: AUC(0-t) (ng·h/mL)
Number in ng·h/mL, nothing else.

Give the measured AUC(0-t) for C=CC(=O)N(C)CCOc1c(N)ncnc1-c1cc(F)cc(NC(=O)c2ccc(C3CC3)cc2F)c1C [Compound of Formula (I)] 4.4

###

Experiment: First-in-human Part 2 multiple ascending dose q.d. blood and urine PK
Type: in vivo
Conditions: human, whole blood, oral; 50 mg qd, Day 12, blood; Median (Min-Max); read-out: T½ (converted)
property-measured: half-life (h)
Number in h, nothing else.

Give the measured half-life for C=CC(=O)N(C)CCOc1c(N)ncnc1-c1cc(F)cc(NC(=O)c2ccc(C3CC3)cc2F)c1C 1.15

###

Assay: First-in-human Part 2 multiple ascending dose q.d. blood and urine PK
Type: in vivo
Details: human, whole blood, oral, 10 mg, 10 mg qd, Day 12, blood; Mean ± SD
property-measured: AUC(0-inf)
Don't forget the unit after the value.

Give the measured AUC(0-inf) for C=CC(=O)N(C)CCOc1c(N)ncnc1-c1cc(F)cc(NC(=O)c2ccc(C3CC3)cc2F)c1C 24.7 ng·h/mL

###

Test: Blood exposure of compound (I) after oral dose in rats
Format: in vivo
Details: female, rat, 1 mg/kg dose, 5 hours post dose
property-measured: concentration at 5 h (nM)
Number in nM, nothing else.

Give the measured concentration at 5 h for C=CC(=O)N(C)CCOc1c(N)ncnc1-c1cc(F)cc(NC(=O)c2ccc(C3CC3)cc2F)c1C 5.6

###

Test: First-in-human Part 3 food effect PK, single 60 mg dose
Type: in vivo
Settings: human, blood, oral, 60 mg, fed; read-out: mean Tmax
property-measured: Tmax

Give the measured Tmax for C=CC(=O)N(C)CCOc1c(N)ncnc1-c1cc(F)cc(NC(=O)c2ccc(C3CC3)cc2F)c1C > 3 h

###

Assay: First-in-human Part 2 multiple ascending dose q.d. blood and urine PK
Format: in vivo
Conditions: human, blood and urine, oral, 25 mg, 25 mg qd, Day 12; Median (Min-Max); read-out: Renal clearance
Description: […] Pharmacokinetic samples were obtained in blood and evaluated in all subjects at all dose levels. The samples from placebo subjects were not analyzed. […] Compound (I) concentrations were determined in blood by a validated LC-MS/MS method.
property-measured: CL renal (mL/min)
Number in mL/min, nothing else.

Give the measured CL renal for C=CC(=O)N(C)CCOc1c(N)ncnc1-c1cc(F)cc(NC(=O)c2ccc(C3CC3)cc2F)c1C 18.9

###

Assay: First-in-human Part 3 food effect PK, single 60 mg dose
Assay type: in vivo
Details: human, blood, oral, 60 mg, fasted; read-out: mean Tmax
property-measured: Tmax (h)
Number in h, nothing else.

Give the measured Tmax for C=CC(=O)N(C)CCOc1c(N)ncnc1-c1cc(F)cc(NC(=O)c2ccc(C3CC3)cc2F)c1C 1

###

Experiment: First-in-human Part 2 multiple ascending dose q.d. blood and urine PK
Type: in vivo
Conditions: human, blood, oral, 400 mg, 400 mg qd, Day 12, blood; Median (Min-Max); read-out: Cmax
property-measured: Cmax (ng/mL)
Number in ng/mL, nothing else.

Give the measured Cmax for C=CC(=O)N(C)CCOc1c(N)ncnc1-c1cc(F)cc(NC(=O)c2ccc(C3CC3)cc2F)c1C 476

###

Assay: First-in-human Part 3 food effect PK, single 60 mg dose
Type: in vivo
Conditions: human, blood, oral, 60 mg, single dose 60 mg, FAST; Mean; read-out: AUC0-24
property-measured: AUC(0-t) (ng·h/mL)
Number in ng·h/mL, nothing else.

Give the measured AUC(0-t) for C=CC(=O)N(C)CCOc1c(N)ncnc1-c1cc(F)cc(NC(=O)c2ccc(C3CC3)cc2F)c1C [Compound of Formula (I)] 202

###

Test: First-in-human Part 2 multiple ascending dose q.d. blood and urine PK
Type: in vivo
Conditions: human, blood, oral, 600 mg, 600 mg qd, Day 12, blood; Median (Min-Max); read-out: Vss/F
property-measured: Vd/F (L)
Number in L, nothing else.

Give the measured Vd/F for C=CC(=O)N(C)CCOc1c(N)ncnc1-c1cc(F)cc(NC(=O)c2ccc(C3CC3)cc2F)c1C 7070

###

Assay: First-in-human Part 2 multiple ascending dose q.d. blood and urine PK
Type: in vivo
Conditions: human, blood, oral, 50 mg, 50 mg qd, Day 1, blood; Median (Min-Max); read-out: MRT
property-measured: MRT (h)
Number in h, nothing else.

Give the measured MRT for C=CC(=O)N(C)CCOc1c(N)ncnc1-c1cc(F)cc(NC(=O)c2ccc(C3CC3)cc2F)c1C [Compound of Formula (I)] 2.44
